- system under test: T1, B7-H3 antigen H4M (human 4Ig B7-H3 amino acids 27-461 with N-terminal 10 His tag and C-terminal Myc tag) (human, UniProt Q5ZPR3 27-461, Biotinylated in the phage ELISA (labeling amount approximately 2.5, sites not stated); not biotinylated in the scFv protein ELISA)
- T1 construct: Expressed in Expi293; also called biotinylated B7-H3 antigen H4M; not shown: any linker between the tags and the B7-H3 part is not described
- T1 sequence: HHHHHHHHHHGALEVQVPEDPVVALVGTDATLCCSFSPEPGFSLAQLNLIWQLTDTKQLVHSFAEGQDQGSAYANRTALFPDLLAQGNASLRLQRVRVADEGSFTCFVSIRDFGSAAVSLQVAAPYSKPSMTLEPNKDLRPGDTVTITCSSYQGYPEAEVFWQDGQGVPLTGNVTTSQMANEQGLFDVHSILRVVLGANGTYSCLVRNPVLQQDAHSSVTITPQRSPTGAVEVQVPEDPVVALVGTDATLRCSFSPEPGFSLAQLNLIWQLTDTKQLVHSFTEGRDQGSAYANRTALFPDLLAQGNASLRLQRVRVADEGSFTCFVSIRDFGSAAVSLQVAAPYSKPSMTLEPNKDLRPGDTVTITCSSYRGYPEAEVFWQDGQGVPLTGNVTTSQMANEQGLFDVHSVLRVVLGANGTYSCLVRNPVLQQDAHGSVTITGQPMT
- method description: scFv protein ELISA on coated H4M
readout type: ELISA signal value of protein scFv (absorbance 450 nm)
The reply should be a number in absorbance 450 nm, with the unit left off.

| binder | result unit | ELISA signal value of protein scFv |
| --- | --- | --- |
| P2E5 scFv (scFv) scFv: QVTLKESGGGLVQPGGSLRLSCAASGFTFSNSYMTWVRQAPGMGLEWVASMKPDGSVKHYVDSVKGRFTISRDNTKNSLDLQMNSLRAEDTAVYYCSSYDTRWGWFDPWGEGTLVTVSSGSASAPTLGQGGGGGSGGGGSGGGGSQTVVTQEPSFSVSPGGTVTLTCGLNSGSVSTSYFPSWYQQTPGQAPRTLIYNTNTRSSGVPDRFSGSILGNKAALTITGAQADDESDYYCLLYMDSGPHWVFGGGTKLTVL | absorbance 450 nm | 0.84 |
| P3B9 scFv (scFv) scFv: QIQLVQSGAEVKKPGESLKISCKGSGYSFTSYWIGWVRQMPGKGLEWMGIIYPGDSDTRYSPSFQGQVTISADKSISTAYLQWSSLKASDTAMYYCARRTPRGMDVWGQGTTVTVSSGSASAPTLGQGGGGGSGGGGSGGGGSQAVLTQPPSASGTPGQRVTISCSGSSSNIGSNYVYWYQQLPGTAPKLLIYRNNQRPSGVPDRFSGSKSGTSASLAISGLRSEDEADYYCAAWDDSLSGWVFGGGTKLTVL | absorbance 450 nm | 3.39 |
| P1G2 scFv (scFv) scFv: QVQLQQSGAEVKKPGSSVKVSCKASGGTFSSYAISWVRQAPGQGLEWMGRIIPILGIANYAQKFQGRVTITADKSTSTAYMELSSLRSEDTAVYYCAVNYYDSSGYYSDYWGQGTLVTVSSGSASAPTLGQGGGGGSGGGGSGGGGSSYELTQPPSASGSPGQSVTISCTGTSSDVGGYNYVSWYQQHPGKAPRLMIYGVSQRPSGVPDRFSGSKSGNTASLTVSGLQAEDEADYYCSSYANNNYVFGTGTKVTVL | absorbance 450 nm | 0.54 |

# evaluate next
Given P2E3 scFv (scFv) scFv: QVQLVQSGAEVKKPGESLKISCKGSGYSFTSYWIGWVRQMPGKGLEWMGIIYPGDSDTRYSPSFQGQVTISADKSISTAYLQWSSLKASDTAMYYCARRSREGFDPWGQGTLVTVSSGSASAPTLGQGGGGGSGGGGSGGGGSQAVLTQPSSASGTPGQRVTMSCSGAASNIGKNFVYWYQQLPGRAPRLLISRNIQRPSEVPDRFSGSKSGTSASLAISGLQSEDEADYYCAAWDDSLNGFVFGTGTAVTVL , state its recorded ELISA signal value of protein scFv.
3.58

Where do these numbers come from? They come from patent US20220017620A1.
